Biological target: T1, recombinant human TREM2-DAP12 fusion protein expressed on cells (human)
T1 construct: also called HEKhT2; 293 cells expressing human TREM2; not shown: None of these limits is stated
T1 chain: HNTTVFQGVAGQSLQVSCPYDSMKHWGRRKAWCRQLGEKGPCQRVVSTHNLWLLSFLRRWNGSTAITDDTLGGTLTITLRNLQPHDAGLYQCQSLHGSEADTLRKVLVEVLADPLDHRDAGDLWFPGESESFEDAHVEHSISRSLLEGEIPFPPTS
Assay: KD cell binding
measurement label: pKd
Recall that pKd is obtained by taking minus log10 of the concentration measured in molar.

3A2 (antibody, IgG1, V domains shown, mIgG1; variable domains built FR1-HVR1-FR2-HVR2-FR3-HVR3-FR4) VH: QVQLQQSGAELVKPGASVKMSCKTSGYPFSNFWITWVKQRPGQGLVWIGDIYPGSDNSNYNEKFKTKATLTVDTSSSTAYMHLSSLTSEDSAVYFCAREAYYTNPGFAYWGQGTLVTVST VL: DVVMTQTPLSLPVSLGDQASISCRSSQTIIHSNGNTYLEWYLRKPGQSPKLLIYKVSNRFSGVPDRFSGSGSGTDFTLKISRVEAEDLGVYYCFQGSHVPYTFGGGTELEIK; 8.30

Continue with the next binder.
Ask | Quick one: give measured pKd for 9G1 (antibody, IgG1, V domains shown, mIgG1) VH: QVQLQQSGAELVKPGASVKLSCKASGYIFTTYWIHWVKQRPGRGPEWIGRIDPNNGDTNYNEKFKTKATLTVDKPSSTADMQLSSLTSEDSAVYYCVMTGTDFDYWGQGTTLTVSS VL: DVLMTQTPLSLPVSLGDQASISCRFSQSLVHSNGNTYLHWYLQKPGQSPKLLIYKVSNRFSGVPDRFSGSGSGTDFTLRISGVEAEDLGVYFCSQSTRVPPTFGGGTKLEIK
Reply | 8.04
